# Test system: Saccharomyces cerevisiae;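 note: PSI is a weighted mean of sequencing reads over stability bins, variants kept only with over 10 reads, mCherry proximal and sfGFP distal, peptide attached via GGGS linker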
# assay_comment: protein stability index of tFT-peptide fusion (C-terminal peptide) (PSI (0-1 scale)); higher = more stable (slower turnover)
# condition_parameters: genetic background: cdc53-1; temperature: 37 C
# label = criterion met if protein stability index >= 0.5 else criterion not met

Answer whether protein stability index of IVSFRLDLSLAV is greater than or equal to 0.5.
criterion met

Answer whether protein stability index of SPIGIFCFILCR is greater than or equal to 0.5.
criterion not met

Answer whether protein stability index of PFLLLVSPISSC is greater than or equal to 0.5.
criterion not met

Answer whether protein stability index of GRVAIFTLLWRI is greater than or equal to 0.5.
criterion not met

Answer whether protein stability index of LVVAVLKIIMSS is greater than or equal to 0.5.
criterion not met

Answer whether protein stability index of VFVMVLCALFYF is greater than or equal to 0.5.
criterion not met

Answer whether protein stability index of SLALLFSFLLFL is greater than or equal to 0.5.
criterion not met

Answer whether protein stability index of GGGWCVWMVWFG is greater than or equal to 0.5.
criterion met
